assay_system: CYP11A1 (Homo sapiens, UniProt P05108)
Construct: recombinant WT human CYP11A1, pET-28a(+), C-terminal His6, coexpressed with GroEL/ES in E. coli, purified; MST
Sequence (P05108 40-521): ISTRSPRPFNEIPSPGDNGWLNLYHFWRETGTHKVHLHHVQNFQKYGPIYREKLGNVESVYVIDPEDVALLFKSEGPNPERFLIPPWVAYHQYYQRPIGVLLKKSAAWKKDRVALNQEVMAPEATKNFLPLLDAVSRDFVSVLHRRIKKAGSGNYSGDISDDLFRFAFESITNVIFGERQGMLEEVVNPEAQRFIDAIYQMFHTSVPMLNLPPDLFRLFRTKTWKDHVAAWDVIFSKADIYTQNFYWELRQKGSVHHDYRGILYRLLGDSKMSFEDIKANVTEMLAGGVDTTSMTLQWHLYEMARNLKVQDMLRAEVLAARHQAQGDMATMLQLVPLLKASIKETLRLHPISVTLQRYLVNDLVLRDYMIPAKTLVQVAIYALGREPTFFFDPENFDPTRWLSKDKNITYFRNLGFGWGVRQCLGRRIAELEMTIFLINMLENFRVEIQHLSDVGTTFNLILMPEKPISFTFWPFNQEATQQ
assay_summary: MST with purified protein; in-gel competition with Tet probe; CO difference spectra; cell activity IC50 […]
assay_endpoint: pKd
In textbook form, pKd equals minus log to base ten of the concentration in mol/L.

Incoming: Name the recorded pKd for COc1ccc2cc1Oc1ccc(cc1)C[C@H]1c3cc(c(OC)cc3CCN1C)Oc1c(OC)c(OC)cc3c1[C@H](C2)N(C)CC3 [Tet, Tetrandrine] .
Outgoing: 4.90
